Biological target: human Fab-λ (human)
Assay: dynamic binding on peptide-Toyopearl column, Fab 1 mg/mL in PBS, residence time 2 min, elution pH 4; yield = elution peak area over total peak area
Ends that are not written are not given here.
READOUT_NAME: Fab-λ Yield (%)

Example binders with recorded Fab-λ Yield:
IIHRRAFWWFPN (also: C-terminus attached to Toyopearl AF-Amino-650M resin or ChemMatrix bead) ... 66
RWTIWPPNWHPP (also: C-terminus attached to Toyopearl AF-Amino-650M resin or ChemMatrix bead) ... 53

a. FRWNFHRNTFFP (also: C-terminus attached to Toyopearl AF-Amino-650M resin or ChemMatrix bead)
b. IRHHNIWFNTIA (also: C-terminus attached to Toyopearl AF-Amino-650M resin or ChemMatrix bead)
Param pair: a , b . Output: the one whose Fab-λ Yield is numerically greater. API: response body contains the label of the selected item. a
(a: 91%, b: 42%)
